Molecular target: Tyrosine-protein phosphatase non-receptor type 1 (Homo sapiens)
Sequence (P18031 whole entry): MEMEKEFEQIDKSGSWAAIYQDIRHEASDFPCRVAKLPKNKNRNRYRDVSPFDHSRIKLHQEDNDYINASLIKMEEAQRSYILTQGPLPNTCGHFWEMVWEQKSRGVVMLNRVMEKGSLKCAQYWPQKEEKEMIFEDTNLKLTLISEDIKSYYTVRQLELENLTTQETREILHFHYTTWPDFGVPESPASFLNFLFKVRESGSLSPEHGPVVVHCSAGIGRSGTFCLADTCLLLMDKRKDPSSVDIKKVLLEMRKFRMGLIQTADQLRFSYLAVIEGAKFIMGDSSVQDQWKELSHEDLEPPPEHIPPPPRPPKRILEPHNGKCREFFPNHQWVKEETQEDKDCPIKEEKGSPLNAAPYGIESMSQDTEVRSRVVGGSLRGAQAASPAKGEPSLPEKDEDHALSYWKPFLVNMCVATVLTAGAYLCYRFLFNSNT
pIC50: −log10 of the molar value.
The entries below pair molecules with pIC50 values for Tyrosine-protein phosphatase non-receptor type 1 (Homo sapiens), as found in several publications.
Rule: pIC50 of 6 or more gives yes; anything lower gives no.

Examples with answers:
molecule: Oc1ccc(/C=C/c2cc(O)cc(O)c2O[C@@H]2OC[C@@H](O)[C@H](O)[C@H]2O)cc1
target-or-test-system: Tyrosine-protein phosphatase non-receptor type 1 (Homo sapiens)
classification: no

molecule: O=C(O)c1cc2oc3c(Oc4ccc(-c5ccc(OS(=O)(=O)O)c(O)c5)cc4O)cc(O)cc3c2cc1O
target-or-test-system: Tyrosine-protein phosphatase non-receptor type 1 (Homo sapiens)
classification: no

molecule: O=C1CC(c2ccc(C[C@H](NS(=O)(=O)c3ccccc3)c3nc4ccccc4[nH]3)cc2F)S(=O)(=O)[N-]1.[Na+] (stereo partly specified)
target-or-test-system: Tyrosine-protein phosphatase non-receptor type 1 (Homo sapiens)
classification: yes

molecule: C/C1=C/C[C@@H]2[C@H](CC2(C)C)[C@@]2(CC[C@H]1O)C[C@H](c1ccccc1)c1c(O)c(C=O)c(O)c(C=O)c1O2
target-or-test-system: Tyrosine-protein phosphatase non-receptor type 1 (Homo sapiens)
classification: no

molecule: CC1(C)CC[C@]2(C(=O)O)CC[C@]3(C)C(=CC[C@@H]4[C@@]5(C)CCC(=O)C(C)(C)[C@@H]5CC[C@]43C)[C@@H]2C1
target-or-test-system: Tyrosine-protein phosphatase non-receptor type 1 (Homo sapiens)
classification: no

In: pIC50 >= 6 for O=C(/C=C/c1ccc(Cl)cc1Cl)NC(Cc1ccc2cc(OCc3ccccc3F)ccc2c1)C(=O)O (racemic) ?
Out: no

In: pIC50 >= 6 for C/C(=C/C(C)=C/c1csc([C@H](Cc2ccc(OCc3ccccc3)cc2)NC(=O)Cc2c[nH]c3ccccc23)n1)C(=O)OCC(=O)O ?
Out: no

In: pIC50 >= 6 for CNc1nc(N)nc2nc(-c3c(N4CCCC4)cccc3C(F)(F)F)ccc12 ?
Out: yes

In: pIC50 >= 6 for O=C(NC(Cc1ccc2cc(O)ccc2c1)C(=O)O)c1ccccc1 (racemic) ?
Out: no

In: pIC50 >= 6 for O=C1CC(c2ccc(CC(NS(=O)(=O)c3ccc(-c4ccccc4)cc3)c3nc4ccccc4[nH]3)cc2)S(=O)(=O)N1 (stereo unspecified) ?
Out: yes

In: pIC50 >= 6 for C[C@H]1OC(=O)c2c(O)cc3c(c2[C@H]1O)C[C@H]1[C@@]2(C)C=CC(=O)C(C)(C)[C@@H]2C[C@H](O)[C@]1(C)O3 ?
Out: no

###

Target: Tyrosine-protein phosphatase non-receptor type 1 (Homo sapiens, UniProt P18031)
Sequence (P18031 whole entry): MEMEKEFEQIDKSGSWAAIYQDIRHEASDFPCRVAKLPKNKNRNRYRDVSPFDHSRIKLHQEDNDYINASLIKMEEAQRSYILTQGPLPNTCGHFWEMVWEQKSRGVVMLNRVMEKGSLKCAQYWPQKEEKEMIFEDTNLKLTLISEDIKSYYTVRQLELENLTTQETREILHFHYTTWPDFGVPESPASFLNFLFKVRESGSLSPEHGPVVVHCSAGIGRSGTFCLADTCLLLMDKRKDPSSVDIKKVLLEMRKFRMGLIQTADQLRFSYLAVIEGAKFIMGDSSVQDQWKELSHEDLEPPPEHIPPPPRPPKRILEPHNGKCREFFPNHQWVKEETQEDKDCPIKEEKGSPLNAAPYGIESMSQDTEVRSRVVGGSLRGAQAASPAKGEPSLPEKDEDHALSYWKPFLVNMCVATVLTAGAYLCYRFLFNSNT
The entries below pair compounds with IC50 values for Tyrosine-protein phosphatase non-receptor type 1 (Homo sapiens, UniProt P18031), as found in several publications.
Answers are plain numbers, in µM.

compound: CC(=O)O[C@H]1[C@@H]2C(=O)c3c(C)cc(O)c4c3[C@@]1(COC4=O)C1=C2c2c(C)cc(O)c3c(=O)n(-c4ccccc4F)cc(c23)C1=O
unit-name: µM
numeric-result: 35

compound: CC(=O)O[C@H]1[C@@H]2C(=O)c3c(C)cc(O)c4c3[C@@]1(COC4=O)C1=C2c2c(C)cc(O)c3c(=O)n(-c4ccccc4)cc(c23)C1=O
unit-name: µM
numeric-result: 78.4

compound: O=C(O)COc1c(O)cc(-c2cccc(C(F)(F)F)c2)cc1OCc1ccccc1
unit-name: µM
numeric-result: 2.2

Batch request: IC50 per item, same order as input.
1. O=C(O)c1cccc2c1oc1ccc(-c3csc(-c4ccc(N5CCCCC5)cc4)n3)cc12
2. CCCCCCCCCCCCCCCC(=O)C1=C(O)CC(COCc2ccccc2)OC1=O (stereo not given)
3. O=C1CC(c2ccc(CC(NS(=O)(=O)c3ccc(-c4ccccc4)cc3)c3nc4cc(C(F)(F)F)ccc4[nH]3)cc2)S(=O)(=O)N1 (stereo not given)
4. COc1cc(CC(NC(=O)CCCC[C@]23CCC(C)(C)C[C@H]2C2=CC[C@@H]4[C@@]5(C)CC[C@H](O)C(C)(C)[C@@H]5CC[C@@]4(C)[C@]2(C)CC3)C(=O)O)cc(OC)c1 (stereo not given in full)
5. CNc1nc(N)nc2nc(-c3c(N4CCOCC4)cccc3C(F)(F)F)ccc12

Out:
1. 0.121
2. 5.6
3. 0.16
4. 0.63
5. 1.15

Batch request: IC50 per item, same order as input.
1. COc1cccc(CC(NC(=O)CCCC[C@]23CCC(C)(C)C[C@H]2C2=CC[C@@H]4[C@@]5(C)CC[C@H](O)C(C)(C)[C@@H]5CC[C@@]4(C)[C@]2(C)CC3)C(=O)O)c1 (stereo not given in full)
2. COc1ccc(CCNC(=O)Cc2ccccc2[N+](=O)[O-])cc1
3. COc1ccc(-c2cnc(-c3cc(O)c(O)c(Br)c3)o2)cc1
4. CO[C@@]12c3c(C)cc(O)c4c(=O)n(-c5ccc(C)cc5)cc(c34)C(=O)[C@@H]1[C@]13COC(=O)c4c(O)cc(C)c(c41)C(=O)[C@H]2[C@@H]3OC(C)=O
5. O=C(Nc1ccc(-c2ccc(NC(=O)c3ccc(F)cc3)cc2)cc1)c1ccc(F)cc1
6. C/C(=C\Cc1c(O)cc(O)c2c1C[C@@H](C)OC2=O)CC/C=C(\C)CC[C@H](O)C(C)(C)O

Out:
[0.52, 87, 9.13, 35.3, 19, 13.7]

Batch request: IC50 per item, same order as input.
1. O=C(O)c1cc2c(CCc3ccc(Oc4ccccc4)cc3)c(-c3ccccc3)oc2cc1O
2. C[C@@H]1O[C@@H](O[C@H]2[C@H](Oc3cc(O)c4c(c3)O[C@H](c3ccc(O)cc3)CC4=O)O[C@H](CO)[C@@H](O)[C@@H]2O)[C@H](O)[C@H](O)[C@H]1O
3. CCOC(=O)COC(=O)/C(C)=C\C(C)=C\c1csc([C@H](Cc2ccc(OCc3ccccc3)cc2)NC(=O)CCc2c[nH]c3ccccc23)n1
4. COC(=O)c1c(O)cccc1OCCCCc1cnc(C(Cc2ccc(C3CC(=O)NS3(=O)=O)c(C)c2)NS(=O)(=O)c2cccc(F)c2)[nH]1 (stereo not given)

Out:
8
91.8
5.43
0.16

Batch request: IC50 per item, same order as input.
1. CNC(=O)[C@@H]1Cc2ccc(NS(=O)(=O)O)cc2CN1C(=O)COc1cccc(O)c1C(=O)OC
2. CCCO[C@H]1CC[C@]2(C)[C@H]3CC=C4[C@@H]5CC(C)(C)CC[C@]5(C(=O)O)CC[C@@]4(C)[C@]3(C)CC[C@H]2C1(C)C
3. CCOS(=O)(=O)/C=C/c1ccc(O[C@@H]2CN(C(=O)C(=O)Nc3ccc(Oc4ccc(Cl)cc4)cc3)C[C@H]2Oc2ccc(CCS(=O)(=O)OCC)cc2)cc1
4. NS(=O)(=O)c1cc(-c2ccc(CSCc3ccc(C(F)(F)P(=O)(O)O)c(Br)c3)cc2)ccc1Br

Out:
1. 93.4
2. 36.5
3. 0.38
4. 0.006
